System: Salmonella typhimurium
Experiment Notes: Compound was evaluated for the effective dose, as compared to controls against Salmonella typhimurium TA98
Condition Parameters: read-out: ED50 (the source's name)
pEC50: −log10 of the molar value.

Structure As Smiles	pEC50
Cc1c2cc[n+](C)cc2c(C)c2c1[nH]c1ccc(O)c(/N=C/C(=O)O)c12	4.00
Cc1c2cc[n+](C)cc2c(C)c2c1[nH]c1ccc(O)c(/N=C(\CC(C)C)C(=O)O)c12	5.63
C/C(=N\c1c(O)ccc2[nH]c3c(C)c4cc[n+](C)cc4c(C)c3c12)C(=O)O	4.30
Cc1c2cc[n+](C)cc2c(C)c2c1[nH]c1ccc(O)c(/N=C(/C(=O)O)C(C)C)c12	5.78

###

log10(K app) reference
Test system: Nucleic Acid
Experiment Notes: Apparent binding constant (Kapp) for calf thymus DNA was measured by competition with ethidium bromide
Type: nucleic-acid assay
Condition Parameters: Bos taurus
Endpoint Label: log10(K app) (log10 of the value in M⁻¹)

Structure As Smiles	log10(K app)
Cc1c2cc[n+](C)cc2c(C)c2c1[nH]c1ccccc12	5.36
Cc1c2cc[n+](C)cc2c(C)c2c1[nH]c1ccc(O)c(/N=C(\CC(C)C)C(=O)O)c12	5.41
Cc1c2cc[n+](C)cc2c(C)c2c1[nH]c1ccc(O)c(/N=C(/C(=O)O)C(C)C)c12	5.32
Cc1c2cc[n+](C)cc2c(C)c2c1[nH]c1ccc(O)cc12	6.11
C/C(=N\c1c(O)ccc2[nH]c3c(C)c4cc[n+](C)cc4c(C)c3c12)C(=O)O	5.67
Cc1c2cc[n+](C)cc2c(C)c2c1[nH]c1ccc(O)c(/N=C/C(=O)O)c12	4.90
